EXPERIMENT_SUMMARY: Solubility of the obtained material
Assay type: physicochemical
TEST_CONDITIONS: water, thermodynamic from solid; read-out: solubility in water

>  <MOLECULE>
CC(C)(C)[C@H](c1nc(-c2cc(F)ccc2F)cn1Cc1ccccc1)N(CC[C@H](N)CF)C(=O)CO [crystalline form D]

>  <UNIT_ABBREV>
µg/mL

>  <solubility>
4400

$$$$

====

EXPERIMENT_SUMMARY: Solubility of the obtained material
Type: physicochemical
TEST_CONDITIONS: buffer pH 6.8, pH 6.8, aqueous buffer, thermodynamic from solid; read-out: solubility in buffer with pH 6.8

>  <COMPOUND>
CC(C)(C)[C@H](c1nc(-c2cc(F)ccc2F)cn1Cc1ccccc1)N(CC[C@H](N)CF)C(=O)CO [crystalline form D]

>  <solubility / µg/mL>
10

$$$$

Where do the numbers come from? From patent US20110275685A1.
